This section presents compounds with their documented IC50 at 24 h values.
# Procedure text: Nephrotoxicity against HEK293 cells assessed as cell viability incubated for 24 hrs by MTT assay
# Format: toxicity, cell-based
# Condition description: human
Peptide text beside a SMILES is read from it.
Recorded endpoint: IC50 at 24 h (µg/mL)

| Compound | Result value |
| --- | --- |
| CC(C)C[C@@H]1NC(=O)[C@H](CCCN)NC(=O)[C@H](C(C)C)NC(=O)[C@@H]2CCCN2C(=O)[C@@H](Cc2ccccc2)NC(=O)[C@H](CC(C)C)NC(=O)[C@H](CCCN)NC(=O)[C@H](C(C)C)NC(=O)[C@H](Cc2c[nH]c3ccccc23)NC(=O)[C@@H](Cc2c[nH]c3ccccc23)NC1=O (HELM PEPTIDE1{L.[dF].P.V.[Orn].L.[dW].W.V.[Orn]}$PEPTIDE1,PEPTIDE1,1:R1-10:R2$$$V2.0) | 4.64 |
| CC(C)C[C@@H]1NC(=O)[C@H](CCCN)NC(=O)[C@H](C(C)C)NC(=O)[C@@H]2CCCN2C(=O)[C@@H](Cc2ccccc2)NC(=O)[C@H](CC(C)C)NC(=O)[C@H](CCCN)NC(=O)[C@H](C(C)C)NC(=O)[C@H](Cc2c[nH]c3ccccc23)NC(=O)[C@@H](CCCNC(=N)N)NC1=O (HELM PEPTIDE1{L.[dF].P.V.[Orn].L.[dR].W.V.[Orn]}$PEPTIDE1,PEPTIDE1,1:R1-10:R2$$$V2.0) | 13.6 |
| CC(C)C[C@@H]1NC(=O)[C@H](CCCN)NC(=O)[C@H](C(C)(C)C)NC(=O)[C@@H]2CCCN2C(=O)[C@@H](Cc2ccccc2)NC(=O)[C@H](CC(C)C)NC(=O)[C@H](CCCN)NC(=O)[C@H](C(C)C)NC(=O)[C@@H]2CCCN2C(=O)[C@@H](Cc2ccccc2)NC1=O (HELM PEPTIDE1{L.[dF].P.[CC(C)(C)[C@H](N[*:1])C(=O)[*:2]].[Orn].L.[dF].P.V.[Orn]}$PEPTIDE1,PEPTIDE1,1:R1-10:R2$$$V2.0) | 5.46 |
| CC(C)C[C@@H]1NC(=O)[C@H](CCCN)NC(=O)[C@H](C(C)C)NC(=O)[C@H](Cc2c[nH]c3ccccc23)NC(=O)[C@@H](Cc2ccccc2)NC(=O)[C@H](CC(C)C)NC(=O)[C@H](CCCN)NC(=O)[C@H](C(C)C)NC(=O)[C@H](Cc2c[nH]c3ccccc23)NC(=O)[C@@H](Cc2ccccc2)NC1=O (HELM PEPTIDE1{L.[dF].W.V.[Orn].L.[dF].W.V.[Orn]}$PEPTIDE1,PEPTIDE1,1:R1-10:R2$$$V2.0) | 5.03 |
| CC(C)C[C@@H]1NC(=O)[C@H](CCCN)NC(=O)[C@H](C(C)(C)C)NC(=O)[C@@H]2CCCN2C(=O)[C@@H](Cc2ccccc2)NC(=O)[C@H](CC(C)C)NC(=O)[C@H](CCCN)NC(=O)[C@H](C(C)C)NC(=O)[C@@H]2CCCN2C(=O)[C@@H](CCCNC(=N)N)NC1=O | 19.5 |
